TARGET ENTITY: T1, mfPRLR.mmh (soluble monomeric macaca fascicularis PRLR) (macaca fascicularis)
T1 construct: soluble monomeric construct; also called macaca fascicularis (mf) PRLR.mmh
T1 chain: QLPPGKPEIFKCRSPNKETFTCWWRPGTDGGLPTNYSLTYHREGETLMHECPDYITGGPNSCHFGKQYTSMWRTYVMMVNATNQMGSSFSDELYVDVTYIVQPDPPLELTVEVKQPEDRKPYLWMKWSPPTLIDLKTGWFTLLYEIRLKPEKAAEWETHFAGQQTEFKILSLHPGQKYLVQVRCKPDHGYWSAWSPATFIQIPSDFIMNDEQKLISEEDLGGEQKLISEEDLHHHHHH
PROTOCOL NOTES: SPR, 37C, mAb capture
OUTCOME MEASURE: T½ (min)
Report the figure in min without appending any unit label.

Reported T½ ( H1H6958N2 (antibody, human IgG1, V domains shown, also called H2M6958N2) VH: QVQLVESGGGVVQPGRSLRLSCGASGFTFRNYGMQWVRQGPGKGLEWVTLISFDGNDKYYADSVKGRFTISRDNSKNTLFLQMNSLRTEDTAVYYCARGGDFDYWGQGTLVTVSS VL: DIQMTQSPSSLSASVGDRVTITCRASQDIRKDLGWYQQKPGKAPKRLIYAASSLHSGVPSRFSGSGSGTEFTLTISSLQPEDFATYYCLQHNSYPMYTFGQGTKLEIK ) = 8.6

Recorded T½ (binder H1H6975N (antibody, human IgG1, V domains shown, also called H2M6975N) VH: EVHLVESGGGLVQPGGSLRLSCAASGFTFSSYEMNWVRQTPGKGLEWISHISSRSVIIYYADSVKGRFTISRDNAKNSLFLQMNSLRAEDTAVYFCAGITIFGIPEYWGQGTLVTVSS VL: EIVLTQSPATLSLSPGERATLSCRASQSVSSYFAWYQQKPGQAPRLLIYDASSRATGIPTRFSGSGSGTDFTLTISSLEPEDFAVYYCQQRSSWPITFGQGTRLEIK ): 36.4

The measured T½ associated with H1H6800P (antibody, human IgG1, V domains shown, human IgG1 Fc (H1H)) VH: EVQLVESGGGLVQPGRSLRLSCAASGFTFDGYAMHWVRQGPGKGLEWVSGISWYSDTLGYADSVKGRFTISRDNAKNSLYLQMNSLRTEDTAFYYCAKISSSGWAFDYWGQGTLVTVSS VL: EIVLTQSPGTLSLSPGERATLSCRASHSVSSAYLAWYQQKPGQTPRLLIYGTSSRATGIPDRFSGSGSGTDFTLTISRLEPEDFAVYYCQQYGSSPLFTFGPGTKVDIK reads 11
